# tested-target: T1, linear diubiquitin (Boston Biochem) (human, UniProt P0CG48 1-152)
# T1 construct: Bought product
# protocol-description: western blot, 1 ug/mL IgG, LI-COR Odyssey quantification; Ub2 bands seen at 333 (faint) and 1000 ng
result-type: signal of the Ub2 band at 1000 ng linear diUb (number under the arrow)
A bare number is all that is needed in reply.

State its signal of the Ub2 band at 1000 ng linear diUb (number under the arrow) for this binder: 2C11 IgG (antibody, name in Kabat numbering, V domains shown) VH: EVQLVESGGGLVQPGGSLRLSCAASGFTFSNTYISWVRQAPGKGLEWVASITPSSGSTDYADSVKGRFTISADTSKNTAYLQMNSLRAEDTAVYYCARTWLLRWVMDYWGQGTLVTVSS VL: DIQMTQSPSSLSASVGDRVTITCRASQDVSTAVAWYQQKPGKAPKLLIYSASFLYSGVPSRFSGSGSGTDFTLTISSLQPEDFATYYCQQSYTQPPTFGQGTKVEIK
10.8
